Measured TGI by item
Test system: SF-295 CNS
Experiment: NCI tumour cell line growth inhibition, 48 h
Return type: number; implicit unit µM.

1) COc1cc2c3c(c4ccc(OC)c(OC)c4c2cc1OC)CN1CCC[C@@H]1C3 ... 6.39

Query block: Look up TGI for this compound: C=CC(=O)N1C/C(=C\c2ccccc2)C(=O)/C(=C/c2ccccc2)C1
Result block: 5.07

###

System: MALME-3M melanoma
Assay: NCI tumour cell line growth inhibition, 48 h
List of TGI values.

Consider the following illustrative entries.
1) O=C(Nc1cccc(NC(=O)C(=O)C2CCC3=C(Sc4ccccc4N3)C2=O)n1)C(=O)C1CCC2=C(Sc3ccccc3N2)C1=O (stereo not drawn) ... > 100 µM
2) CCN(CC)C(=S)SNc1ccc(S(N)(=O)=O)cc1 ... 97.3 µM
3) CCN1C(=S)n2cccc2C1CC(=O)c1ccc(Cl)cc1 (stereo not drawn) ... > 100 µM
4) O=c1[nH]cc(/C=N\Nc2ccccc2)c(=O)[nH]1 ... > 100 µM
5) CN(C)CCCNC(=O)c1cc(NC(=O)c2cc(NS(=O)(=O)c3ccc4c(c3)C(=O)c3ccccc3C4=O)cn2C)cn1C ... 79.4 µM
6) C=C[C@]1(O)CCC[C@]2(C)C(=O)CCC12C (stereo partly drawn) ... > 100 µM
7) Cc1ccc(/C=N/Nc2nc3ccccc3s2)s1 ... > 100 µM
8) CN[C@@H](C)C(=O)N[C@H]1CN(C(=O)CC(C)C)CC[C@H]2CC[C@@H](C(=O)NC(c3ccccc3)c3ccccc3)N2C1=O ... > 53.9 µM

Query block: For N=C(N)/N=C(\N)c1c(-c2cc(O)ccc2O)nc2sccn12 , what is its reported TGI?
Result block: 35.4 µM

Query block: What does the data say about its TGI? Entry: Cc1ccc2[nH]c3c(C)c4c(c(C)c3c2c1)CN(C)C=C4
Result block: 4.58 µM

Query block: Param item = COC(=O)[C@H]1[C@@H](O)[C@@]2(O)c3c(OC)cc(O[C@@H]4O[C@@H]([C@H](O)CO)CO[C@H]4OC)cc3O[C@@]2(c2ccc(OC)cc2)[C@@H]1c1ccccc1 ; retrieve measured TGI.
Result block: 0.0259 µM

Query block: What measured TGI goes with CC1=CC=C2c3ccccc3C=CN2C(=O)C1 ?
Result block: > 100 µM

Query block: TGI for Cc1c(C#N)c(N)[nH]c(=S)c1C#N ?
Result block: > 100 µM

Query block: Item under review: COc1ccc(N=Nc2c(C)c(C#N)c(=S)n(C3OC(COC(C)=O)C(OC(C)=O)C(OC(C)=O)C3OC(C)=O)c2C)cc1 (stereo not drawn) . Reported TGI?
Result block: > 100 µM

Query block: What value of TGI has been reported for the following molecule? NC(=O)/C(=C\c1ccncc1)c1cccc2ccccc12
Result block: > 100 µM

Query block: Would you kindly share the measured TGI for CCCCCCCCCCCCCCCCOCC(CN(C)CCN(C)C)OCCCCCCCCCCCCCCCC (stereo not drawn) ?
Result block: > 100 µM

Query block: Query (molecule): CC(/C=C/C(=O)c1sc(-n2nc(-c3ccccc3)cc2-c2ccccc2)nc1C)=C\c1ccccc1 ; field requested: TGI
Result block: > 100 µM

Query block: Recorded TGI of Fc1ccc(-c2nn3c(CNc4ccccc4)nnc3s2)cc1 , please.
Result block: 94.6 µM

Query block: Can you look up the measured TGI of CC1(C)C(C#N)=[N+]([O-])C(C)(C)N1O for me?
Result block: > 100 µM

Query block: What value of TGI has been recorded for this entry: O=C(Cc1nc2ccccc2s1)Nc1ccc(Cl)cc1
Result block: > 100 µM

Query block: Fill in the blank: the reported TGI of Cc1ncc(C(=O)Nc2ccc(CN3CCN(C)CC3)c(C(F)(F)F)c2)cc1C#Cc1cnc(N)c2cnccc12 is ____.
Result block: 0.042 µM

###

Test system: KM12 colon
Assay: NCI tumour cell line growth inhibition, 48 h
ENDPOINT: TGI

Solved entries:
1) O=C(Nc1ccc(Cl)cc1)NS(=O)(=O)c1coc2ccccc2c1=O ... > 10 µM
2) C[N+](C)(C)CC(=O)N/N=C(\CCC(=O)NCCc1ccccc1)CC(=O)c1ccccc1 ... > 100 µM
3) COc1ccc(C2=Nn3c(nc4sc(C)c(C)c4c3=O)SC2)cc1 ... > 100 µM
4) CCOC(=O)Cc1nc2ccccc2s1 ... > 10 µM
5) NC(=O)NC(=O)CCC(NS(=O)(=O)c1ccccc1)C(=O)NC(N)=O (configuration not stated) ... > 100 µM
6) COc1cc(Br)c(CC2(C#N)c3ccccc3C3C(N2C(=O)c2ccccc2)C3(Cl)Cl)cc1OC (configuration not stated) ... > 65.5 µM

Now consider a different compound.
Query block: Observed TGI on KM12 colon for c1ccc(N=C(N2CCOCC2)N(CCN2CCOCC2)c2ccccc2)cc1 , please.
Result block: > 100 µM

###

System: RXF 393 renal
Assay: NCI tumour cell line growth inhibition, 48 h
ENDPOINT: TGI

1) CCOC(=O)C[C@@H](C)[C@]1(C(=O)OC)CCCC1=O ... > 100 µM

Query block: Missing value: TGI, RXF 393 renal, entry C[C@H]1C(=O)O[C@@H]1[C@H]1COC(C)(C)O1 . Fill in?
Result block: > 100 µM

Query block: Hello, I am looking for reported TGI with RXF 393 renal for C=CC(CBr)CCC(Br)C(C)(C)Br (configuration not stated) . Could you help?
Result block: > 10 µM

Query block: Report TGI for C=C[C@]1(O)CCC[C@]2(C)C(=O)CCC12C (some centres not stated) tested on RXF 393 renal.
Result block: > 100 µM

Query block: What is its TGI for RXF 393 renal? Entry: COC(=O)[C@H]1C(=O)[C@@]2(C)[C@H]([C@H](OC(=O)c3ccccc3)[C@]3(O)C[C@H](OC(=O)[C@H](O)[C@@H](NC(=O)c4ccc(F)cc4)c4ccccc4)C(C)=C1C3(C)C)[C@]1(OC(C)=O)CO[C@@H]1C[C@@H]2O
Result block: > 25 µM

Query block: For the record Cc1cc(S(=O)(=O)NC(=C(C#N)C#N)[n+]2ccc(N(C)C)cc2)c([S-])cc1Cl , what value of TGI is listed for RXF 393 renal?
Result block: > 100 µM

Query block: Record lookup: for RXF 393 renal, what TGI belongs to CC1=C(C#N)C23C(=O)c4ccccc4C(O)=C2C(=O)C=CC3(O)N1 (configuration not stated) ?
Result block: 9.74 µM

Query block: Write down the reported TGI of CS/C(C#N)=C(\C#N)SC , test system: RXF 393 renal.
Result block: 5.11 µM

Query block: Form field - read-out: TGI; system: RXF 393 renal; submitted item: CN[C@@H](C)C(=O)N[C@H]1CN(C(=O)CC(C)C)CC[C@H]2CC[C@@H](C(=O)NC(c3ccccc3)c3ccccc3)N2C1=O
Result block: > 100 µM

Query block: Fill in the recorded TGI for this molecule, with RXF 393 renal as test system: CSc1nc(NC2OCC(OC(C)=O)C(OC(C)=O)C2OC(C)=O)c(N=C(C)C(C)=O)c(=O)n1C (configuration not stated)
Result block: > 100 µM

Query block: Please provide the recorded TGI for COc1cc(Br)c(CC2(C#N)c3ccccc3C3C(N2C(=O)c2ccccc2)C3(Cl)Cl)cc1OC (configuration not stated) , tested on RXF 393 renal.
Result block: > 65.5 µM

Query block: Give TGI (RXF 393 renal) of the following molecule: CCCOc1ccc(-c2nc(-c3ccc(N=Cc4ccc(N(CCOS(C)(=O)=O)CCOS(C)(=O)=O)cc4C)cc3)cs2)cc1
Result block: 28.9 µM

Query block: Look up TGI with RXF 393 renal for this molecule: CNC(=O)c1c(NC(=O)c2ccc(C(F)(F)F)cc2)sc2c1CCC(=O)C2
Result block: 2.15 µM

Query block: Missing value: TGI, RXF 393 renal, entry CCCCCCCCCCCCNC(=O)[C@H]1CSC(c2cc3ccccc3s2)N1 (some centres not stated) . Fill in?
Result block: 2.21 µM

Query block: Request: TGI, test system RXF 393 renal, entry O=Nc1c(-c2c(O)[nH]c3ccccc23)[nH]c2ccccc12
Result block: 13.2 µM

Query block: Find TGI (RXF 393 renal) for the entry N#CC1(C#N)NC(c2cccnc2)C(C#N)(C#N)NC1c1cccnc1 (configuration not stated)
Result block: > 100 µM

Query block: Lab request: please report TGI under test system RXF 393 renal for O=C(CSc1nnc(Cc2ccccc2)o1)Nc1cccc(Cl)c1
Result block: > 100 µM

###

System: SK-OV-3 ovarian
Experiment: NCI tumour cell line growth inhibition, 48 h
Consider the following compounds and their measured TGI readings.

Example entries begin here.
1. CC(/C=C/C(=O)c1sc(-n2nc(-c3ccccc3)cc2-c2ccccc2)nc1C)=C\c1ccccc1 ... > 100 µM
2. COC(=O)C(Cc1ccccc1)NC(=O)C(CCC(=O)OCc1ccccc1)NC(=O)OC(C)(C)C (centres undefined) ... > 100 µM
3. CC(C)CC1C(=O)N2CCC[C@H]2C2(O)O[C@](NC(=O)C3C=C4c5cccc6[nH]c(Br)c(c56)C[C@H]4N(C)C3)(C(C)C)C(=O)N12 (some centres undefined) ... > 100 µM

Query block: Any idea what its TGI is? The compound is CCNCCC1(CC)C(=O)NC(=O)NC1=O
Result block: > 100 µM

Query block: Reported TGI for O=C(O)C1=C(C(=O)Nc2ccccc2)C2C=CC1C2 (centres undefined) : what is it?
Result block: > 100 µM

Query block: TGI for CNC1C(O)C(NC)C2OC3(O)C(=O)CC(C)OC3OC2C1O (centres undefined) ?
Result block: > 100 µM

Query block: For O=C(CSc1nnc(Cc2ccccc2)o1)Nc1cccc(Cl)c1 , what is its reported TGI?
Result block: > 100 µM

Query block: Looking for the measured TGI of C[C@@H](N)C1CCC(C(=O)Nc2ccncc2)CC1 (some centres undefined) , can you help?
Result block: > 100 µM

Query block: Using the record for Nc1ccccc1SC(CC(=O)c1ccccc1)c1ccc([N+](=O)[O-])cc1 (centres undefined) , report its TGI.
Result block: 31 µM

Query block: Look up TGI: O=C(Cc1nc2ccccc2s1)Nc1ccc(Cl)cc1
Result block: > 100 µM

Query block: Find the recorded TGI belonging to COC(=O)[C@H]1[C@@H](O)[C@@]2(O)c3c(OC)cc(O[C@@H]4O[C@@H]([C@H](O)CO)CO[C@H]4OC)cc3O[C@@]2(c2ccc(OC)cc2)[C@@H]1c1ccccc1 and report it.
Result block: 0.0325 µM

Query block: Report TGI for CC1(C)O[C@H]([C@H](O)c2nnc3ccc(Cl)nn23)[C@@H]([C@H]2COC(C)(C)O2)O1 please.
Result block: > 100 µM

Query block: Look at this compound and give its reported TGI. Cc1ncc(C(=O)Nc2ccc(CN3CCN(C)CC3)c(C(F)(F)F)c2)cc1C#Cc1cnc(N)c2cnccc12
Result block: 0.763 µM

Query block: Query (compound): COc1ccc(CC2c3cc(OC)c(OC)c(OC)c3CC[N+]2(C)C)cc1Oc1ccc(CC2c3cc4c(c(OC)c3CC[N+]2(C)C)OCO4)cc1 (centres undefined) ; field requested: TGI
Result block: > 100 µM

Query block: Tell me the measured TGI of CC1=CC(=O)CC(C)(C)C1(O)/C=C/C(C)=C/C(=O)O (centres undefined) , please.
Result block: > 100 µM

Query block: Endpoint output: TGI of O=c1[nH]c(=O)n(C2OC(CO)C(O)C2O)c2ncc(-c3ccc(-c4ccccc4)cc3)nc12 (centres undefined) . Value?
Result block: > 20 µM
